Biological target: Env of HIV-1 strain ZM53M.PB12 (HIV-1)
Assay: cell-based or functional assay
// reported neutralization IC50 per item
experimental-readout: neutralization IC50

| binder | experimental-result |
| --- | --- |
| γ15κ11 (antibody, V domains shown) VH: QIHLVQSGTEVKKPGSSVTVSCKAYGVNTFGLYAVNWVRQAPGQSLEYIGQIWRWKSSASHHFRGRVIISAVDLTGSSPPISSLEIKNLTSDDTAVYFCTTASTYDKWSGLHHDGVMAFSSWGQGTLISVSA VL: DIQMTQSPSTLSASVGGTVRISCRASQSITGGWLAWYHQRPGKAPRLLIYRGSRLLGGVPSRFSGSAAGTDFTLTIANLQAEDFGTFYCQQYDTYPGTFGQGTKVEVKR | > 15 µg/mL |
| γ52κ61 (antibody, V domains shown) VH: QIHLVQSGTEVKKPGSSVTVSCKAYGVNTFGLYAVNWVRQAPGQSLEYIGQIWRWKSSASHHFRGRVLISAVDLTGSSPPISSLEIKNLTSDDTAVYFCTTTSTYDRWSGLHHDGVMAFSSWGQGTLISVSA VL: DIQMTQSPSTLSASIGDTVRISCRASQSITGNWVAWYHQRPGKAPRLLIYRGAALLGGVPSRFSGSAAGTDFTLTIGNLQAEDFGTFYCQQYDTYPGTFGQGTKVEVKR | 8.44 µg/mL |
| γ20κ3 (antibody, V domains shown) VH: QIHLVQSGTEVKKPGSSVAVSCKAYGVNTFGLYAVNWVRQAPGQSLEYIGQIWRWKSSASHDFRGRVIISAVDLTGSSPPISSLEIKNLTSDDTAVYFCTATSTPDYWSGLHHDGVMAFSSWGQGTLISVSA VL: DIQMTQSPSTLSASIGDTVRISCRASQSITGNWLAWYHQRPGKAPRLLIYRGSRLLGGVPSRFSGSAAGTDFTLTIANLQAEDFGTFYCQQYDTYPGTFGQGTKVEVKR | > 15 µg/mL |
| γ3κ18 (antibody, V domains shown) VH: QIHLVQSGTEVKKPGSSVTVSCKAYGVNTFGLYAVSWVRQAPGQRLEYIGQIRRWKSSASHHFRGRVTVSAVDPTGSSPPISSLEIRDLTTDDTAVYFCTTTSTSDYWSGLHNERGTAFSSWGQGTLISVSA VL: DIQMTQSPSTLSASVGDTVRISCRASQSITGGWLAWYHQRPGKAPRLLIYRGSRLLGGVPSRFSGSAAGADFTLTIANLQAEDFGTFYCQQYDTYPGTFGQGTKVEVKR | > 15 µg/mL |
| 8ANC3430 (antibody, V domains shown) VH: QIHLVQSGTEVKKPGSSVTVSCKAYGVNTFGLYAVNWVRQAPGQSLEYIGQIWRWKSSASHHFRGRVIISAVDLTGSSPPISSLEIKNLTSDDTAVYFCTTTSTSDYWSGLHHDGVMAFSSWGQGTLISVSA VL: DIQMTQSPSTLSASVGDTVRISCRASQSITGGWLAWYHQRPGKAPRLLIYRGSRLLGGVPSRFSGSAAGTDFTLTIANLQAEDFGTFYCQQYDTYPGTFGQGTKVEVKR | > 23 µg/mL |
